- Test system: P388
- TEST METHOD NOTES: Antineoplastic activities against P388 leukemia in CD2F1 male mice.
- Type: functional, Mus musculus
- Parameters: unit not given here
METRIC NAME: Optimal dose
Output spec: single numeric token, no unit.

# COMPOUND, RESULT NUMBER
data = [
    ("CC1(C)CC(OP(=S)(N2CC2)N2CC2)CC(C)(C)N1[O]", 12),
    ("CC1(C)CC(NP(=S)(N2CC2)N2CC2)CC(C)(C)N1[O]", 25),
    ("O=c1[nH]cc(F)c(=O)[nH]1 [FLUOROURACIL]", 200),
    ("CC1(C)CC(NC(=O)NP(=O)(N2CC2)N2CC2)C(C)(C)N1[O] (stereo unspecified)", 90),
    ("S=P(N1CC1)(N1CC1)N1CC1 [THIOTEPA]", 6),
]

// switching to the query compound
Please report the recorded Optimal dose for O=P(N1CC1)(N1CC1)N1CC1 [TEPA] . 6
